Target: APE1 (Homo sapiens, UniProt P27695)
Construct: made in house
Sequence (P27695 whole entry): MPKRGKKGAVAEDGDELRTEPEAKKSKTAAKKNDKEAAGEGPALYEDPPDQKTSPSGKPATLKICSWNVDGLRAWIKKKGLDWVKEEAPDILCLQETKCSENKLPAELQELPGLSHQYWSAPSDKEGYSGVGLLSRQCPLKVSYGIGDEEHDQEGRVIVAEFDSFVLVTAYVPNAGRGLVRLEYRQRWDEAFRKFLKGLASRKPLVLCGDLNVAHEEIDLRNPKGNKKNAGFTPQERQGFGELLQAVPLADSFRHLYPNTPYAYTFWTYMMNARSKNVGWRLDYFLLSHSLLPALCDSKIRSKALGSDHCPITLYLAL
Test: Fluorescence polarization (FP) displacement assay of APE1 binding to AP-DNA probe;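 note: TAMRA 5′-labeled duplex DNA with THF abasic site (5 nM) and APE1 (20 nM), Mg2+-free buffer, 15 min at room temperature, inhibition seen as lowered polarization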
Settings: read-out: FP IC50
The reader will find reported IC50 values listed item by item below.
Observed Property: IC50

Compound	Observed Property	Value
CC(=O)[C@]1(O)Cc2c(O)c3c(c(O)c2[C@@H](O[C@H]2C[C@H](N)[C@H](O)[C@H](C)O2)C1)C(=O)c1ccccc1C3=O [NCGC00093976]	IC50	3.2 µM
COc1ccc(CCn2c(O)cc3nn(-c4nc5ccccc5s4)c(=O)c-3c2C)cc1 [MLS000763226]	IC50	> 57 µM
CCN(CC)c1ccc(C(=C2C=CC(=[N+](CC)Cc3cccc(S(=O)(=O)[O-])c3)C=C2)c2ccc(N(CC)Cc3cccc(S(=O)(=O)O)c3)cc2)cc1 [NCGC00166058]	IC50	31.6 µM
CC(C)(C)OC(=O)C[C@@H]1C/C=C\C[C@H](CC(=O)NCCO)C(=O)N2CCC[C@H]2COC1=O [MLS002320191]	IC50	> 57 µM
COc1ccc(N2Cc3cccc(C(=O)O)c3C2=O)cc1 [MLS000120697]	IC50	7.9 µM
O=c1c(O)c(Br)ccc2c(Br)c(O)c(O)c(O)c12 [NCGC00160279]	IC50	> 57 µM
Cc1coc2c(C)c3oc(=O)c(CCC(=O)N[C@@H](C)C(=O)N[C@@H](Cc4ccccc4)C(=O)O)c(C)c3cc12 [MLS001140219]	IC50	> 57 µM
O=C(CSc1nnc(Nc2ccccc2F)s1)NC(=O)CN1CCCC1=O [MLS002163634]	IC50	18.2 µM
CC(=O)OCC1=C(C(=O)[O-])N2C(=O)C(NC(=O)CCCC(N)C(=O)O)C2SC1.[Na+] (stereo not shown) [NCGC00094863]	IC50	> 57 µM
COc1ccc2c(c1)c(=O)oc1cc(OCC(=O)NC3CCCCC3)ccc12 [MLS000594161]	IC50	> 57 µM
Cc1cc(C=O)c(C)n1-c1ccc(Cl)c(C(=O)O)c1 [MLS000676588]	IC50	> 57 µM
O=C(COC(=O)c1ccccc1)Nc1ncc([N+](=O)[O-])s1 [MLS002171184]	IC50	> 57 µM
Cn1cccc1/C=C1\C(=O)NC(=O)N(Cc2ccco2)C1=O [MLS000677191]	IC50	> 57 µM
Cc1cccc(N2NC(=O)/C(=C/c3ccc(-c4ccc(Cl)c(C(=O)O)c4)o3)C2=O)c1 [MLS000621664]	IC50	> 57 µM
COc1ccc(NC(=O)CN(C)C(=O)c2cccc(-n3cccc3)c2)cc1 [MLS001097639]	IC50	> 57 µM
O=C(CCc1n[nH]c(=O)[nH]c1=O)N/N=C/c1ccco1 [MLS000685551]	IC50	> 57 µM

----------
Target: APE1 (Homo sapiens)
Construct: made in house
Assay: Gel-based radiotracer (32P) APE1 incision assay;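 note: APE1 incision reactions ran 5 min at 37 °C, with cleaved product and intact substrate resolved electrophoretically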
Type: biochemical
Parameters: concentration or dose not given beside the values
Settings: percent incision shown; entries 1-112
param class (str): category from Radiotracer Assay (%Activity); see ranges low bracket (below 10%), middle bracket (10% to below 30%), high bracket (30% or more)

Molecule	Class Assignment
Cc1c(O)cc2c(c1O)C(=O)CC(c1ccc(O)cc1)O2 (stereo not drawn) [MLS000876957]	high bracket
O=C1CC(=O)N(Cc2ccco2)C(=O)N1 [MLS000062734]	middle bracket
O=C(O)c1cccc(-n2cccc2/C=C/[N+](=O)[O-])c1 [MLS000778420]	high bracket
O=C(Nc1ccc2nc(-c3ccco3)c(-c3ccco3)nc2c1)N1CCCCCC1 [MLS000050353]	high bracket
CC1(CC(=O)N/N=C/c2cc([N+](=O)[O-])c(O)cc2O)OCCO1 [MLS000548032]	middle bracket
CCOC(=O)c1cc(-c2ccc(N3CCOCC3)cc2)nn1-c1ccccc1C(=O)O [MLS000759946]	middle bracket
O=c1oc2c(O)c(O)cc3c(=O)oc4c(O)c(O)cc1c4c23 [NCGC00094975]	low bracket
O=c1ccc2[n+]([O-])c3ccc([O-])cc3oc-2c1.[Na+] [MLS000778776]	low bracket
COc1cc2c(ccc3cc(OC)c(OC)c(O)c32)cc1O [MLS000863573]	low bracket
COc1ccc2c(c1)c(=O)oc1cc(OCC(=O)NC3CCCCC3)ccc12 [MLS000594161]	high bracket
Cn1cnnc1SCC(=O)Nc1nc(-c2ccccc2)cs1 [MLS000711532]	high bracket
Cc1ccc2c(=O)c3ccccc3n(CCCN)c2c1C [NCGC00161415]	low bracket
O=c1nc(N/N=C/c2ccco2)cn[nH]1 [MLS000685729]	middle bracket
O=C(CCCN1C(=O)/C(=C/c2ccco2)SC1=S)Nc1ccccc1C(=O)O [MLS000778775]	low bracket
CC(C)C(C(=O)O)N1C(=O)/C(=C/C=C/c2ccco2)SC1=S (stereo not drawn) [MLS000551672]	middle bracket
O=C(/C=C/c1ccc(O)c(O)c1)O[C@H](Cc1ccc(O)c(O)c1)C(=O)O [MLS000697677]	high bracket
N#Cc1ccccc1CN1C(=O)S/C(=C/c2cccn2-c2cccc(C(=O)O)c2)C1=O [MLS000539676]	middle bracket
Cc1c(C(=O)OCC2CCCO2)[nH]c2c1C(=O)CC(c1ccco1)C2 (stereo not drawn) [MLS000090966]	high bracket
COc1ccc(CN2C(=O)NC(=O)/C(=C\c3ccco3)C2=O)cc1 [MLS000723827]	middle bracket
O=C(COC(=O)c1cc2c(s1)CCC2)Nc1ccc(F)cc1 [MLS000334872]	high bracket
Cc1c2c(c(O)c3c(O)cccc13)C(=O)O[C@H]2C1C(N(C)C)C(O)=C(C(N)=O)C(=O)[C@H]1O (stereo partly drawn) [NCGC00163605]	low bracket
COc1ccc2c(c1)c(=O)oc1cc(OCC(=O)N3CCc4ccccc4C3)ccc12 [MLS000594187]	high bracket
O=C(c1cc(C(=O)c2ccco2)cc(C(=O)c2ccco2)c1)c1ccco1 [MLS000699310]	low bracket
Cc1ccc(NC(=O)CN2C(=O)S/C(=C/c3ccc(-c4cc(C(=O)O)ccc4C)o3)C2=O)cc1C [MLS000530771]	middle bracket
Cc1cccc(C)c1NC(=O)CSc1nnc(-c2ccco2)c(-c2ccco2)n1 [MLS000556463]	high bracket
CC(=O)[C@]1(O)Cc2c(O)c3c(c(O)c2[C@@H](O[C@H]2C[C@H](N)[C@H](O)[C@H](C)O2)C1)C(=O)c1ccccc1C3=O [NCGC00093976]	low bracket
COc1ccc(Cc2nnc(NC(=O)Cc3cccs3)s2)cc1OC [MLS000115025]	high bracket
N[C@H](Cc1ccc(O)c(O)c1)C(=O)O [NCGC00093869]	middle bracket
O=C(O)C[C@@H]1C(=O)O[C@@H]2C(COC(=O)c3cc(O)c(O)c(O)c3)O[C@@H](OC(=O)c3cc(O)c(O)c(O)c3)[C@@H](OC(=O)c3cc(O)c(O)c4c3[C@H]1[C@H](O)C(=O)O4)[C@H]2OC(=O)c1cc(O)c(O)c(O)c1 (stereo partly drawn) [MLS000697665]	middle bracket
Cc1cc(/C=C2\C(=O)NC(=O)N(Cc3ccco3)C2=O)c(C)n1-c1ccc(C(=O)O)cc1 [MLS000807042]	high bracket
O=C(O)c1ccc(N2C(=O)c3cccc4c(C(=O)O)ccc(c34)C2=O)cc1 [MLS000713642]	middle bracket
Nc1ccc2c(c1Cl)C(=O)c1ccc(N)c(Cl)c1C2=O [MLS000737360]	middle bracket

----------
Biological target: APE1 (Homo sapiens)
Construct: made in house
Assay: Fluorogenic kinetic qHTS APE1 incision assay (primary screen and retest of cherrypicked samples);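 note: purified APE1 cleaving a fluorophore/dark-quencher labelled 17-mer duplex DNA bearing a tetrahydrofuran AP site, fluorescence rise followed kinetically over the first 2 min, inhibition normalized to controls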
Format: biochemical
Conditions: initial quantitative high-throughput screen; read-out: APE1 qHTS IC50
Recorded IC50 values for a group of compounds are listed next.
Observed Property: IC50 (µM)

Compound	Observed Property	Value
Nc1nc(=S)c2ncn(C3OC(CO)C(O)C3O)c2[nH]1 (centres unmarked) [MLS000738229]	IC50	13.4
CN(CC(=O)Nc1cccc(F)c1)C(=O)c1cccc(-n2cccc2)c1 [MLS001071694]	IC50	3.4
COc1ccc(Cc2nnc(NC(=O)Cc3cccs3)s2)cc1OC [MLS000115025]	IC50	28.2
C=CC1=C(C(=O)O)N2C(=O)[C@@H](NC(=O)/C(=N\OCC(=O)O)c3csc(N)n3)[C@H]2SC1 [MLS002222332]	IC50	11.9
Cc1ccccc1N=C1NC(=O)/C(=C/c2cccn2-c2cccc(C(=O)O)c2)S1 [MLS000704580]	IC50	17.8
CCOC(=O)C1=C(C)N=c2s/c(=C\c3ccc(OCC(=O)O)cc3)c(=O)n2C1c1ccc(Cl)cc1 (centres unmarked) [MLS001178472]	IC50	10.6
Nc1ccc(Nc2ccccc2)c(S(=O)(=O)O)c1 [MLS000737782]	IC50	14.1
O=C(Nc1ccc2oc(-c3ccccc3F)nc2c1)c1ccc([N+](=O)[O-])o1 [MLS001194759]	IC50	2.7
Cc1ccc(C)c(S(=O)(=O)Nc2ccc3oc(C)c(C(=O)O)c3c2)c1 [MLS000948181]	IC50	13.4
COc1cccc(NC(=O)CN(C)C(=O)c2cc3c(s2)CCC3)c1 [MLS001142077]	IC50	10.6
Cc1cc(/C=C2\C(=O)NC(=O)N(Cc3ccco3)C2=O)c(C)n1-c1ccc(C(=O)O)cc1 [MLS000807042]	IC50	1.1
Cc1cc(/C=C2\C(=O)NC(=O)N(Cc3ccccc3Cl)C2=O)c(C)n1-c1ccc(C(=O)O)cc1 [MLS000627094]	IC50	11.2
Nc1c(C(=O)OCC(=O)Nc2cccc([N+](=O)[O-])c2)[nH]c(=O)[nH]c1=O [MLS002171489]	IC50	8.4
O=C(NC1CC1)c1cc(-c2ccco2)nc2ccccc12 [MLS001005620]	IC50	11.2
O=C1C=CC2=C3c4cc(O)c(O)cc4CC3(O)COC2=C1O (centres unmarked) [NCGC00095664]	IC50	0.1
O=C(CCCN1C(=O)/C(=C/c2ccco2)SC1=S)Nc1ccccc1C(=O)O [MLS000778775]	IC50	19.9
CCOC(=O)C1CCCN(C(=O)c2cc(-c3ccco3)nc3ccccc23)C1 (centres unmarked) [MLS002245402]	IC50	8.4
